assay.system: PI3Kγ (p110γ) Recombinant Human Protein (Homo sapiens (Human), UniProt P48736)
Sequence (P48736 whole entry): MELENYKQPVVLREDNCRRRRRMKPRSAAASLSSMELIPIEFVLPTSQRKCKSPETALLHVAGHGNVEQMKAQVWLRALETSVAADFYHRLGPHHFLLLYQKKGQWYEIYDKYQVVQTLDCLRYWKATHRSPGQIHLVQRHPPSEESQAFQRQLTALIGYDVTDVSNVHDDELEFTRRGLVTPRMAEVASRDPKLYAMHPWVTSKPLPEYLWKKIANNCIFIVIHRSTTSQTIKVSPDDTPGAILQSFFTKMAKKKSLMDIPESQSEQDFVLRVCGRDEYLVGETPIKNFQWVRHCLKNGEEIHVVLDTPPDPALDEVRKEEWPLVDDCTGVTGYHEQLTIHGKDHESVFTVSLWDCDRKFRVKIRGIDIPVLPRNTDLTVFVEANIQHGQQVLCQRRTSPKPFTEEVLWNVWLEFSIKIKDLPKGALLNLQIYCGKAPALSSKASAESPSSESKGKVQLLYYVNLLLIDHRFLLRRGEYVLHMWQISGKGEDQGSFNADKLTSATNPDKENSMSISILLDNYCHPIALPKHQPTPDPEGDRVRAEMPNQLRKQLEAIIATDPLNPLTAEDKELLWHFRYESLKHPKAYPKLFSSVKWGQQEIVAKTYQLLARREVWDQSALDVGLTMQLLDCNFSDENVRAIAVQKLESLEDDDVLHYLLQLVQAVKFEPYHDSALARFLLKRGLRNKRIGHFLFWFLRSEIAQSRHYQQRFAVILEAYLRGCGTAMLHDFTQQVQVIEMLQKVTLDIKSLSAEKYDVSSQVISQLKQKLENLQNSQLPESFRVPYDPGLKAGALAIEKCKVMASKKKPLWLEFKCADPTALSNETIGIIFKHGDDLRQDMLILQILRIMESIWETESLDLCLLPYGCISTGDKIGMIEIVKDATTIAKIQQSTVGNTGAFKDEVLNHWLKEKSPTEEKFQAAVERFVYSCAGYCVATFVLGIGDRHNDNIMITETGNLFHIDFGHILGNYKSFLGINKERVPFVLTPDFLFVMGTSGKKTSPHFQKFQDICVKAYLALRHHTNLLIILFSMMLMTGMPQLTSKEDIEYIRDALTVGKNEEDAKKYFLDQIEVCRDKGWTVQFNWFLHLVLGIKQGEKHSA
measurement.description: PI3K-γ Scintillation Proximity Assay
Assay type: biochemical
details: read-out: PI3Kγ IC50
pIC50: −log10 of the molar value. Where a name gives a salt, the structure may show the parent alone.
Each entry below carries its reported pIC50.

Below, each entry is followed by its recorded pIC50 result.
- Cc1ccc(S(C)(=O)=O)cc1-c1cnc2c(N)nc(C(=O)NCCc3cnn(C)c3)cn12 [Example 453, trifluoroacetate salt]: 6.30 to 7.00
- Nc1nc(C(F)(F)F)nn2c(-c3cccc(S(=O)(=O)NC45CCC(CO)(C4)C5)c3)cnc12 [Example 411, trifluoroacetate salt]: > 7.00

Pending molecule:
Prompt: Item Cc1ccc(S(=O)(=O)NC23CCC(CO)(C2)C3)cc1-c1cnc2c(N)nc(C(F)(F)F)nn12 [Example 328, trifluoroacetate salt] has what recorded pIC50?
Completion: > 7.00

----------
IC50 reference
assay.system: PI3Kδ (p110δ/p85α) Recombinant Human Protein (Homo sapiens (Human), UniProt O00329)
Sequence (O00329 whole entry): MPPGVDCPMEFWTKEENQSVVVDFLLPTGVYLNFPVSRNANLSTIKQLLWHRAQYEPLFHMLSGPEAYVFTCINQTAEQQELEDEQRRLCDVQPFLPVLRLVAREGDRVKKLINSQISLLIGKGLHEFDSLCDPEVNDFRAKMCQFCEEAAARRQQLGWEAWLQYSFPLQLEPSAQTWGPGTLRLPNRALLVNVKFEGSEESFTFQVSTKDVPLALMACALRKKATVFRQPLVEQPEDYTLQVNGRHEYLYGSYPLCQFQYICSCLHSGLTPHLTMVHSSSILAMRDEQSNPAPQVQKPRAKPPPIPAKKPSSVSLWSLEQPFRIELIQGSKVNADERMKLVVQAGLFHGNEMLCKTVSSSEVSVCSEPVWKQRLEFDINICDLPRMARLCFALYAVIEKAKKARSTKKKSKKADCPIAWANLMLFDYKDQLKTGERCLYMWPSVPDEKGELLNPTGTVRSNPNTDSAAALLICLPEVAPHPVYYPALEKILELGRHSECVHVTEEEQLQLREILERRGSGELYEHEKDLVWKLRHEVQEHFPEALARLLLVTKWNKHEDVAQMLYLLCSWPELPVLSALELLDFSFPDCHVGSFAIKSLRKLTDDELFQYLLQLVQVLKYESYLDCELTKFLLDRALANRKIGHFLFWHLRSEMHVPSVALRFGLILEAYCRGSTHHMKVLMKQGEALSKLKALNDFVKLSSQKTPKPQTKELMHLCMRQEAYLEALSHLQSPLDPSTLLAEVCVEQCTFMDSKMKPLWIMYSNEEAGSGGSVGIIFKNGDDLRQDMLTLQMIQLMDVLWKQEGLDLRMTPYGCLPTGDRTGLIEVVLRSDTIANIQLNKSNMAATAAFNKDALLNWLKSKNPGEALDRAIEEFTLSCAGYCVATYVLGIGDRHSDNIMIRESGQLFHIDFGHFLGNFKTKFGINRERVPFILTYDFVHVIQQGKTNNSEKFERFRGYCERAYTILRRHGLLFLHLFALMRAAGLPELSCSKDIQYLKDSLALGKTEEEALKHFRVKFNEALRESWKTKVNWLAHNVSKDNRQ
Sequence (P27986 whole entry partner): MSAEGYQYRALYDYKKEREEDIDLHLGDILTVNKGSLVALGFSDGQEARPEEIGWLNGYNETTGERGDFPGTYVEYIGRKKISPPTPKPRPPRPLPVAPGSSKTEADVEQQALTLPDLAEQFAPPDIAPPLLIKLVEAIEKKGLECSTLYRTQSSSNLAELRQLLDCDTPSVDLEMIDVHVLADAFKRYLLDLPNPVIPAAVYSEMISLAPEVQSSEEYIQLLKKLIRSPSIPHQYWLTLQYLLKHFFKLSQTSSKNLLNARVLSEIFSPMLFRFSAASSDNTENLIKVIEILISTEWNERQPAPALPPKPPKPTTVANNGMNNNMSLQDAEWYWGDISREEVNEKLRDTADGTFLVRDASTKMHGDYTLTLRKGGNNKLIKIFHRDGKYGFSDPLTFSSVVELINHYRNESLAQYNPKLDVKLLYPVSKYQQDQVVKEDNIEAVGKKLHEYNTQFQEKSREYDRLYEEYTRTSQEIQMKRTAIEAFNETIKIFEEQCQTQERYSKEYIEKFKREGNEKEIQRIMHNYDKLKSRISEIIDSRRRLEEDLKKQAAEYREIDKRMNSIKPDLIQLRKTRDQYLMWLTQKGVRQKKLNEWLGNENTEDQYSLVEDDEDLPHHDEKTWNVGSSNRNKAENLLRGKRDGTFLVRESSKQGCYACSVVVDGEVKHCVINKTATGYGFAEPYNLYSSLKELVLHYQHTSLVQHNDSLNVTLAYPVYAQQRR
measurement.description: PI3Kδ Scintillation Proximity Assay
Structures can show the parent of a compound that is named as a salt.

Consider the reported IC50 for these molecules:
• Cc1ccc(S(=O)(=O)NC23CC(CO)(C2)C3)cc1-c1cnc2c(N)ncnn12 [Example 105, trifluoroacetate salt] = 500 to 2000 nM
• Cc1ccc(S(=O)(=O)NCC2CCOC2)cc1-c1cnc2c(N)nccn12 (centres unmarked) [Example 48] = 500 to 2000 nM
• Cc1noc(C23CC(NS(=O)(=O)c4ccc(C)c(-c5cnc6c(N)ncnn56)c4)(C2)C3)n1 [Example 94, trifluoroacetate salt] = 100 to 500 nM
• Nc1nc(C(F)(F)F)nn2c(-c3cccc(S(=O)(=O)NC45CCC(CO)(C4)C5)c3)cnc12 [Example 411, trifluoroacetate salt] = 100 to 500 nM
• Cc1ccc(S(=O)(=O)N[C@H]2CC[C@H](O)CC2)cc1-c1cnc2c(N)nc(-c3cc(C(F)(F)F)nn3C)cn12 [Example 80] = 100 to 500 nM
• Cc1ccc(S(=O)(=O)N[C@H]2CC[C@H](CC#N)OC2)cc1-c1cnc2c(N)ncnn12 [Example 183] = 100 to 500 nM

Prompt: Please look up its IC50: Cc1ccc(S(=O)(=O)CC(C)O)cc1-c1cnc2c(N)nc(C(F)(F)F)cn12 (centres unmarked) [Example 496, trifluoroacetate]
Completion: 500 to 2000 nM

Prompt: Find the recorded IC50 belonging to N#CC12CCC(NS(=O)(=O)c3cc(-c4cnc5c(N)nc(C(F)(F)F)cn45)ccc3Cl)(C1)C2 [Example 392, trifluoroacetate salt] and report it.
Completion: < 100 nM

Prompt: Look up IC50: Cc1nc(N)c2ncc(-c3cc(S(=O)(=O)NCC4(O)CCC4)ccc3C)n2n1 [Example 269, trifluoroacetate salt]
Completion: 100 to 500 nM

Prompt: Could you tell me which IC50 is on file for N#Cc1ccc(S(=O)(=O)NC23CCC(C#N)(C2)C3)cc1-c1cnc2c(N)ncnn12 [Example 260, trifluoroacetate salt] ?
Completion: 500 to 2000 nM

Prompt: IC50 for Cc1ccc(S(=O)(=O)N[C@H]2CC[C@H](O)CC2)cc1-c1cnc2c(N)nc(C(C)C)cn12 [Example 504] ?
Completion: < 100 nM

Prompt: Please look up its IC50: Cc1ccc(S(=O)(=O)N2CCC[C@H]2C(C)(C)O)cc1-c1cnc2c(N)ncnn12 [Example 213]
Completion: 500 to 2000 nM

Prompt: Tell me the measured IC50 of C[C@]1(O)CC[C@H](NS(=O)(=O)c2cc(-c3cnc4c(N)nc(-c5ccncc5F)cn34)ccc2F)CC1 [Example 422] , please.
Completion: < 100 nM

Prompt: Given CC(=O)Nc1cc(Cl)cn2c(-c3cc(S(=O)(=O)N[C@H]4CC[C@H](O)CC4)ccc3C)cnc12 [Example 5] , state its recorded IC50.
Completion: 100 to 500 nM

Every entry's value here was drawn from patent US10479795B2.
